Origin of the recorded values: patent US9096646B2

Parameter activity at 1 µM: see the listing below.
Target: CXCR4 (Homo sapiens, UniProt P61073)
Sequence (P61073 whole entry): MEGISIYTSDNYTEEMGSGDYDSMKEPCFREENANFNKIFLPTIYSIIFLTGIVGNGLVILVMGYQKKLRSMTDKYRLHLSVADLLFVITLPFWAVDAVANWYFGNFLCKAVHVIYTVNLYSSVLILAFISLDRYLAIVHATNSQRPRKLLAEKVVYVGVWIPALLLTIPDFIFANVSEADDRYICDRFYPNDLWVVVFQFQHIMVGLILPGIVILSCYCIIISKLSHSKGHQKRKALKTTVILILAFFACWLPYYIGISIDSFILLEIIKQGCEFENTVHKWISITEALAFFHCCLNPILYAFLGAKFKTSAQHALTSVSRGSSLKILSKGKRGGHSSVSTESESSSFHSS
Assay: Chemotaxis assay, effect on SDF1-a (CXCL12) induced migration of CCRF-CEM cells
Type: cell-based
Set-up: a human T-cell ALL line that endogenously expresses CXCR4; endogenous in cells; host or cells: CCRF-CEM (human T-cell ALL line)
Settings: CCRF-CEM, Table 20, i3 loop; CEM cells; conc 1.0 uM; read-out: AUC (% of vehicle)
Peptide text beside a SMILES is read from it. * marks the point of attachment. Palmitoyl = CCCCCCCCCCCCCCCC(=O)*
# number only, unit % dropped from output

MOLECULE: CCCCCCCCCCCCCCCC(=O)N[C@@H](CCCCN)C(=O)N[C@@H](CC(C)C)C(=O)N[C@@H](CO)C(=O)N[C@@H](Cc1cnc[nH]1)C(=O)N[C@@H](CO)C(=O)N[C@@H](CCCCN)C(=O)NCC(=O)N[C@@H](Cc1cnc[nH]1)C(=O)N[C@@H](CCC(N)=O)C(=O)N[C@@H](CCCCN)C(=O)N[C@@H](CCCNC(=N)N)C(=O)N[C@@H](CCCCN)C(=O)N[C@@H](C)C(N)=O [Compound 94] (Palmitoyl-KLSHSKGHQKRKA-NH2)
OBSERVED PROPERTY: activity at 1 µM
RESULT UNIT: %
REPORTED: 65.3

get_value(item= CCCCCCCCCCCCCCCC(=O)N[C@@H](Cc1cnc[nH]1)C(=O)N[C@@H](CO)C(=O)N[C@@H](CCCCN)C(=O)NCC(=O)N[C@@H](Cc1cnc[nH]1)C(=O)N[C@@H](CCC(N)=O)C(=O)N[C@@H](CCCCN)C(=O)N[C@@H](CCCNC(=N)N)C(=O)N[C@@H](CCCCN)C(=O)N[C@@H](C)C(=O)N[C@@H](CC(C)C)C(=O)N[C@@H](CCCCN)C(=O)N[C@H](C(=O)N[C@H](C(=O)N[C@H](C(N)=O)C(C)C)[C@@H](C)O)[C@@H](C)O [Compound 99] (Palmitoyl-HSKGHQKRKALKTTV-NH2) , readout=activity at 1 µM) returns 45
